Target: T1, FLRT3 (antigen of the binning assay of Table 2) (Homo sapiens (Human), UniProt Q9NZU0 29-528, limits assumed)
T1 construct: the whole entry for FLRT3 is named
T1 sequence: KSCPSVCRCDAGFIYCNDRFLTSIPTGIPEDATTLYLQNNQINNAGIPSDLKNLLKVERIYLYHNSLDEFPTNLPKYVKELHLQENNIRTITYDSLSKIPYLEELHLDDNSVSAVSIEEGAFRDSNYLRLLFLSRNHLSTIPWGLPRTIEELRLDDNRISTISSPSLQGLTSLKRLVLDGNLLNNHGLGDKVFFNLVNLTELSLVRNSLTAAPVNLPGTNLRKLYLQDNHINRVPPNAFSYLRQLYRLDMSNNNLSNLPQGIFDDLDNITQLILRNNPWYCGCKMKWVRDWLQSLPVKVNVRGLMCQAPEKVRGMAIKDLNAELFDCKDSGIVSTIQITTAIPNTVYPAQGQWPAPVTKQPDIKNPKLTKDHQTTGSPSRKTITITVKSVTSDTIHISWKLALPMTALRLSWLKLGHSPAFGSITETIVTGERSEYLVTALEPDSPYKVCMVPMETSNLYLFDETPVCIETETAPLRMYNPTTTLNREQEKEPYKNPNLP
Experiment: antibody binning matrix (Table 2); competitor: 14B7
assay.metric: binning response (no name or unit printed)

{"binder": "2F7 (antibody, V domains shown, Variable domains only) VH: EVQLQQSGPELVKPGASVKMSCKASGYTFTDYYMNWVKQSHGKSLEWIGRVYPSNSGASYNQKFKGKATLTVDKSLSTAYMQLNSLTSEDSAVYYCASSYYFDYWGQGTTLTVSS VL: DIVMTQSHKFMSTSIGDRVNITCKASQDVGTAVAWFQQKPGQSPKLLIYWASTRHTGVPDRFTGSGSGTDFTLTISNVQSEDLADYFCQQYSSYPTFGAGTTLELK", "experimental.value": 1.06}
{"binder": "1H5 (antibody, V domains shown, Variable domains only) VH: EVQLQQSGPELVKPGASVKMSCKASGYTFTDYYMNWVKQSHGKSLEWIGRVNPSNGVTSYNQKFKGKAALTVDKSLSTAYMQLNSLTSEDSAVYYCARDFLMDYWGQGTSVTVSS VL: DIVMTQSHKFMSTSVGDRVTITCKASQDVGTAVAWYQQKPGQSPKLLIYWASTRHTGVPDRFTGSGSGTDFTLTISNVQSEDLADYFCQQYSSYPTFGGGTKLEIK", "experimental.value": 1.2}
{"binder": "14D3 (antibody, V domains shown, Variable domains only) VH: EIQLQQSGAELVKPGASVKISCKASGYSFTGYNMNWVKQSHGKSLEWIGNITPYYGSASYNQKFKGKATLTVDKSSSTAYMQLNSLTSEDSAVYYCARRSYDYDENAMDYWGQGTSVTVSS VL: DIVMTQSHKFMSTSVGDRVSITCKASQDLSTAVAWYQQKPGQSPKLLIYSASYRYTGVPDRFTGSGSGTDFTFTISSVQAEDLAVYYCQQHYSTPLTFGAGTKLELK", "experimental.value": 1.36}
{"binder": "14B7 (antibody, V domains shown, Variable domains only; also called FLRT3 mAb 14B7; antibody 14B7) VH: QVQLQQSGPELVKPGASVNISCKASGYAFGNSWMNWVKQRPGKGLEWIGWIYPGDGNANYNGKFKGKATLTADKSSSTAYMQLSSLTSEDSAVYFCARALYDYDGWFAYWGQGTLVTVSA VL: DIQMNQSPSSLSASLGDTITIACRASQNIDIWLSWYQQKPGSIPKLLIYKASNLHTGVPSRFSGSGSGTDFTLTISSLQPEDIATYYCLQGQSFPFTFGSGTKLEIK", "experimental.value": 0.0294}
